Overview of reported EC50 across a group of compounds:
Target: progesterone receptor (PR) (Homo sapiens, UniProt P06401)
Sequence (P06401 678-933): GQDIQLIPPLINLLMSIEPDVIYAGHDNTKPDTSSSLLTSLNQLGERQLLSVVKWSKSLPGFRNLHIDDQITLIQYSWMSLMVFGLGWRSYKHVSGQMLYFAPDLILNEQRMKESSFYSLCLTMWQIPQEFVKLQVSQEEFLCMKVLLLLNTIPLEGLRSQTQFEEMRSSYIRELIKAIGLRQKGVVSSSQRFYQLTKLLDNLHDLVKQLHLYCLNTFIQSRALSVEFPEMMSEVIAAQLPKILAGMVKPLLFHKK
Experiment: Assay for agonist activity on progesterone receptor (luciferase reporter, HEK293 cells transfected with pBIND-PR plasmid)
Type: cell-based
Settings: EC50 of agonist activity, HEK293 reporter cells, top concentration 50 µM; read-out: Nuclear receptor enzyme activity (nM) PR

Study these solved cases before continuing.
{"COMPOUND": "C[C@]12C=CC(=O)C=C1CC[C@H]1[C@@H]3C[C@H]4OC(c5ccc(CNC6CCOC6=O)cc5)O[C@@]4(C(=O)CO)[C@@]3(C)C[C@H](O)[C@@]12Cl (some centres unmarked)", "TESTED TARGET": "progesterone receptor (PR) (Homo sapiens, UniProt P06401)", "RESULT": "> 50000 nM"}
{"COMPOUND": "C[C@]12C=CC(=O)C=C1CC[C@H]1[C@@H]3C[C@H]4OC(c5ccc(CSC6CCOC6=O)cc5)O[C@@]4(C(=O)CO)[C@@]3(C)C[C@H](O)[C@@]12Cl (some centres unmarked)", "TESTED TARGET": "progesterone receptor (PR) (Homo sapiens, UniProt P06401)", "RESULT": "> 50000 nM"}

Exercise: State, in one line, measured EC50 of C[C@]12C=CC(=O)C=C1[C@@H](F)C[C@H]1[C@@H]3C[C@H]4OC(c5ccc(C[S+]([O-])C6CCOC6=O)cc5)O[C@@]4(C(=O)CO)[C@@]3(C)C[C@H](O)[C@@]12F (some centres unmarked)
Key: > 50000 nM

Exercise: Identify EC50 associated with the compound C[C@]12C=CC(=O)C=C1CC[C@H]1[C@@H]3C[C@H]4OC(c5ccc(CNC6CCOC6=O)cc5)O[C@@]4(C(=O)CO)[C@@]3(C)C[C@H](O)[C@@]12F (some centres unmarked)
Key: > 50000 nM

Exercise: Kindly indicate its recorded EC50. Item: C[C@]12C=CC(=O)C=C1CC[C@H]1[C@@H]3C[C@H]4OC(c5ccc(SC6CCOC6=O)cc5)O[C@@]4(C(=O)CO)[C@@]3(C)C[C@H](O)[C@@]12F (some centres unmarked)
Key: > 50000 nM

* * *

Target: progesterone receptor (PR) (Homo sapiens)
Experiment: Assay for agonist activity on progesterone receptor (luciferase reporter, HEK293 cells transfected with pBIND-PR plasmid)
Assay type: cell-based
Details: ratio of EC50 values
Target selectivity PR/GR reference

Record excerpt, results attached:
{"MOLECULE": "C[C@]12C=CC(=O)C=C1CC[C@H]1[C@@H]3C[C@H]4OC(c5ccc(CSC6CCOC6=O)nc5)O[C@@]4(C(=O)CO)[C@@]3(C)C[C@H](O)[C@@]12F (stereo partly shown)", "Target selectivity PR/GR": "> 1.5×10^5"}
{"MOLECULE": "C[C@]12C=CC(=O)C=C1[C@@H](F)C[C@H]1[C@@H]3C[C@H]4OC(c5ccc(CSC6CCOC6=O)cc5)O[C@@]4(C(=O)SCF)[C@@]3(C)C[C@H](O)[C@@]12F (stereo partly shown)", "Target selectivity PR/GR": "> 5.0×10^5"}
{"MOLECULE": "C[C@]12C=CC(=O)C=C1[C@@H](F)C[C@H]1[C@@H]3C[C@H]4OC(c5ccc(CSC6CCOC6=O)cc5)O[C@@]4(C(=O)OCF)[C@@]3(C)C[C@H](O)[C@@]12F (stereo partly shown)", "Target selectivity PR/GR": "> 4.2×10^5"}
{"MOLECULE": "C[C@]12C=CC(=O)C=C1[C@@H](F)C[C@H]1[C@@H]3C[C@H]4OC(c5ccc(NC(=O)C6COC(=O)C6)cc5)O[C@@]4(C(=O)SCF)[C@@]3(C)C[C@H](O)[C@@]12F (stereo partly shown)", "Target selectivity PR/GR": "> 9560"}
{"MOLECULE": "C[C@]12C=CC(=O)C=C1CC[C@H]1[C@@H]3C[C@H]4OC(c5ccc(CS(=O)(=O)C6CCOC6=O)cc5)O[C@@]4(C(=O)CO)[C@@]3(C)C[C@H](O)[C@@]12F (stereo partly shown)", "Target selectivity PR/GR": "> 1.2×10^4"}

Exercise: Write down the reported Target selectivity PR/GR (system: progesterone receptor (PR) (Homo sapiens)) of C[C@]12C=CC(=O)C=C1CC[C@H]1[C@@H]3C[C@H]4OC(c5cnc(CSC6CCOC6=O)nc5)O[C@@]4(C(=O)CO)[C@@]3(C)C[C@H](O)[C@@]12F (stereo partly shown)
Key: 6017

Exercise: State recorded Target selectivity PR/GR with progesterone receptor (PR) (Homo sapiens), entry C[C@]12C=CC(=O)C=C1CC[C@H]1[C@@H]3C[C@H]4OC(c5ccc(CNC6CCOC6=O)cc5)O[C@@]4(C(=O)CO)[C@@]3(C)C[C@H](O)[C@@]12F (stereo partly shown) , no comment.
Key: > 3.1×10^4

Exercise: // output Target selectivity PR/GR; input C[C@]12C=CC(=O)C=C1CC[C@H]1[C@@H]3C[C@H]4OC(c5ccc(CSC6CCOC6=O)cc5)O[C@@]4(C(=O)CO)[C@@]3(C)C[C@H](O)[C@@]12Cl (stereo partly shown) ; system progesterone receptor (PR) (Homo sapiens)
Key: > 2.4×10^5

Exercise: GET Target selectivity PR/GR where system = progesterone receptor (PR) (Homo sapiens) and item = C[C@]12C=CC(=O)C=C1CC[C@H]1[C@@H]3C[C@H]4OC(c5ccc(CSC6CCOC6=O)cc5)O[C@@]4(C(=O)CO)[C@@]3(C)C[C@H](O)[C@@]12F (stereo partly shown)
Key: > 1.7×10^5

Exercise: Check progesterone receptor (PR) (Homo sapiens) data and give Target selectivity PR/GR for C[C@]12C=CC(=O)C=C1CC[C@H]1[C@@H]3C[C@H]4OC(c5ccc(SC6CCOC6=O)cc5)O[C@@]4(C(=O)CO)[C@@]3(C)C[C@H](O)[C@@]12F (stereo partly shown) .
Key: > 8077

* * *

Test: Stability in animal lung tissue homogenate, skin tissue homogenate and aqueous humor
Format: in vitro ADME
TEST READOUT: stability in animal lung tissue homogenate, skin tissue homogenate, and aqueous humor

{"MOLECULE": "C[C@]12C=CC(=O)C=C1CC[C@H]1[C@@H]3C[C@H]4OC(c5ccc(CSC6CCOC6=O)nc5)O[C@@]4(C(=O)CO)[C@@]3(C)C[C@H](O)[C@@]12F (stereo partly drawn)", "RESULT": "relatively stable"}
{"MOLECULE": "C[C@]12C=CC(=O)C=C1[C@@H](F)C[C@H]1[C@@H]3C[C@H]4OC(c5ccc(CSC6CCOC6=O)cc5)O[C@@]4(C(=O)OCF)[C@@]3(C)C[C@H](O)[C@@]12F (stereo partly drawn)", "RESULT": "relatively stable"}
{"MOLECULE": "C[C@]12C=CC(=O)C=C1[C@@H](F)C[C@H]1[C@@H]3C[C@H]4OC(c5ccc(CSC6CCOC6=O)cc5)O[C@@]4(C(=O)SCF)[C@@]3(C)C[C@H](O)[C@@]12F (stereo partly drawn)", "RESULT": "relatively stable"}

* * *

Target: glucocorticoid receptor (GR) (Homo sapiens, UniProt P04150)
Sequence (P04150 521-777): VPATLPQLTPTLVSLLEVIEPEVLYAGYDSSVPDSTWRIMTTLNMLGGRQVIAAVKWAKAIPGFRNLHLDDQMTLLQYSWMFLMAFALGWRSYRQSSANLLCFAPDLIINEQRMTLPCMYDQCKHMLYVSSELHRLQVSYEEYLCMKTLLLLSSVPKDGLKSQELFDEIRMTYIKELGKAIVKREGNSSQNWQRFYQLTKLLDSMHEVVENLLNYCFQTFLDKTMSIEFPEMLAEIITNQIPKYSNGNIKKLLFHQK
Assay: Assay for agonist activity on glucocorticoid receptor (luciferase reporter, HEK293 cells transfected with pBIND-GR plasmid)
Assay type: cell-based
Settings: EC50 of agonist activity, HEK293 reporter cells; read-out: Nuclear receptor enzyme activity (nM) GR
Reported EC50 by item:
Answer with a number only, understood to be in nM.

For orientation, consider the following solved cases.
{"COMPOUND": "C[C@]12C=CC(=O)C=C1CC[C@H]1[C@@H]3C[C@H]4OC(c5ccc(CSC6CCOC6=O)cc5)O[C@@]4(C(=O)CO)[C@@]3(C)C[C@H](O)[C@@]12F (stereo partly drawn)", "MEASUREMENT UNITS": "nM", "EC50": 0.3}
{"COMPOUND": "C[C@]12C=CC(=O)C=C1CC[C@H]1[C@@H]3C[C@H]4OC(c5cnc(CSC6CCOC6=O)nc5)O[C@@]4(C(=O)CO)[C@@]3(C)C[C@H](O)[C@@]12F (stereo partly drawn)", "MEASUREMENT UNITS": "nM", "EC50": 8.31}
{"COMPOUND": "C[C@]12C=CC(=O)C=C1CC[C@H]1[C@@H]3C[C@H]4OC(c5ccc(CNC6CCOC6=O)cc5)O[C@@]4(C(=O)CO)[C@@]3(C)C[C@H](O)[C@@]12Cl (stereo partly drawn)", "MEASUREMENT UNITS": "nM", "EC50": 1.12}
{"COMPOUND": "C[C@]12C=CC(=O)C=C1[C@@H](F)C[C@H]1[C@@H]3C[C@H]4OC(c5ccc(NC(=O)C6COC(=O)C6)cc5)O[C@@]4(C(=O)SCF)[C@@]3(C)C[C@H](O)[C@@]12F (stereo partly drawn)", "MEASUREMENT UNITS": "nM", "EC50": 5.23}
{"COMPOUND": "C[C@]12C=CC(=O)C=C1CC[C@H]1[C@@H]3C[C@H]4OC(c5ccc(CSC6CCOC6=O)cc5)O[C@@]4(C(=O)CO)[C@@]3(C)C[C@H](O)[C@@]12Cl (stereo partly drawn)", "MEASUREMENT UNITS": "nM", "EC50": 0.21}

Exercise: Indicate the recorded EC50 value for this compound: C[C@]12C=CC(=O)C=C1CC[C@H]1[C@@H]3C[C@H]4OC(c5ccc(CNC6CCOC6=O)cc5)O[C@@]4(C(=O)CO)[C@@]3(C)C[C@H](O)[C@@]12F (stereo partly drawn)
Key: 1.62

Exercise: State its EC50: C[C@]12C=CC(=O)C=C1CC[C@H]1[C@@H]3C[C@H]4OC(c5ccc(CS(=O)(=O)C6CCOC6=O)cc5)O[C@@]4(C(=O)CO)[C@@]3(C)C[C@H](O)[C@@]12F (stereo partly drawn)
Key: 4.01

Exercise: Give me measured EC50, please, for this compound: C[C@]12C=CC(=O)C=C1CC[C@H]1[C@@H]3C[C@H]4OC(C5CCC(SC6CCOC6=O)CC5)O[C@@]4(C(=O)CO)[C@@]3(C)C[C@H](O)[C@@]12F (stereo partly drawn)
Key: 1.62

Exercise: Tell me EC50 reported for C[C@]12C=CC(=O)C=C1[C@@H](F)C[C@H]1[C@@H]3C[C@H]4OC(c5ccc(OCC6CCOC6=O)cc5)O[C@@]4(C(=O)CO)[C@@]3(C)C[C@H](O)[C@@]12F (stereo partly drawn)
Key: 3.43

Exercise: Give me measured EC50, please, for this compound: C[C@]12C=CC(=O)C=C1[C@@H](F)C[C@H]1[C@@H]3C[C@H]4OC(c5ccc(COC6CCOC6=O)cc5F)O[C@@]4(C(=O)CO)[C@@]3(C)C[C@H](O)[C@@]12F (stereo partly drawn)
Key: 1.21

Exercise: Please report EC50 for the following compound: C[C@]12C=CC(=O)C=C1[C@@H](F)C[C@H]1[C@@H]3C[C@H]4OC(c5ccc(C[S+]([O-])C6CCOC6=O)cc5)O[C@@]4(C(=O)CO)[C@@]3(C)C[C@H](O)[C@@]12F (stereo partly drawn)
Key: 1.33

Exercise: Look up and state reported EC50 for C[C@]12C=CC(=O)C=C1[C@@H](F)C[C@H]1[C@@H]3C[C@H]4OC(C5CCN(C(=O)C6COC(=O)C6)CC5)O[C@@]4(C(=O)SCF)[C@@]3(C)C[C@H](O)[C@@]12F (stereo partly drawn)
Key: 11.8
